The origin of these recorded values is patent US10137210B2.

assay: Partitioning between octanol and phosphate-buffered saline (logP)
Readout Label: logP
Respond using a number only.

The recorded logP for "Cc1ccc2nc(-c3ccc(N[11CH3])cc3)sc2c1" is 3.3

###

target: Aβ(1-40) fibrils (Homo sapiens (Human), UniProt P05067); experiment: [N-methyl-11C]BTA-1 binding assay with Aβ(1-40) fibrils; conditions: Table 1, lower part; read-out: Ki
Sequence (P05067 672-711): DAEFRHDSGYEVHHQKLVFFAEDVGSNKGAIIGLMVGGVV
Reported pKi is given for each of the following compounds.
The meaning of pKi here: minus log10 of the concentration in molar units.

# Structure String, pKi
data = [
    ("Nc1ccc(-c2nc3ccc(O)cc3s2)cc1[125I]", 7.95),
]

// next item, pKi requested
Looking up "Nc1ccc(-c2nc3ccccc3s2)cc1[125I]" , I found its pKi recorded as 8.08
